Source of measurements: PubChem BioAssay

As shown below, each of these compounds has a reported composite z-score value.
Tested on: Human papillomavirus type 1a protein E7 (residues 44-93)
test-summary: HPV1a E7 fragment binders on microarrays, primary screen, biochemical, small-molecule microarray, residues 44-93, 635 nm fluorescence (AID 1108);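 further: E7 fragment applied at 1 µg/mL in TBST for 1 h at 4 C; score combines spot fluorescence with its signal to noise ratio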
run-conditions: small-molecule microarray binding, fluorescence 635 nm; higher = more signal
value-kind: composite z-score

• CC(C)N1CC=CC23O[C@@H]4C=CCCOC(=O)C4[C@H]2C(=O)N(CCCCCO)[C@@H]3C1=O (stereo partly drawn) = -0.734
• COC(=O)[C@H](Cc1ccc(O)cc1)N1CC2=CCCC=C[C@@H]2[C@H]1[C@H](O)Cc1ccccc1 = -0.615
• COCCOC(=O)N1C(=O)[C@@]2(c3cc(C#CCC(C(=O)OC)C(=O)OC)ccc31)[C@H](C(N)=O)[C@H]1C(=O)O[C@H](c3ccccc3)[C@H](c3ccccc3)N1[C@@H]2c1ccc(OCCO)cc1 = 1.43
• COC(=O)[C@@]1(Cc2ccc(F)cc2)[C@H]2c3cc(C(=O)N(C)C)n(CCn4cc([N+](=O)[O-])nc4C)c3C[C@H]2CN1C(=O)c1ccccc1 = 0.81
• COC(=O)c1ccc([C@H](NC(=O)c2ccccc2)[C@]2(C)C[C@H]2C2CCCCC2)cc1 = 1.3
• C=CC[C@]1(C(=O)NCCCOC)N=C(c2ccc(OCCCO)cc2)O[C@H]1c1ccccc1 = 1.44
• COC(=O)C1(CC(C)C)C=C2C(=C(C(C)C)C(=O)C2C)CN1 (stereo not drawn) = -0.57
• COc1ccc([Si](C)(C)[C@H]2[C@H](CCO)O[C@@]3(C(=O)N(Cc4ccccc4)c4ccc(N(C=O)c5ccccc5)cc43)[C@@H]2C)cc1 = 1.21
• C=CCC(OC(C)=O)[C@@H]1[C@@H](N(Cc2ccc(-c3ccccc3)cc2)C(=O)c2ccc(-c3ccccc3)cc2)c2cc(OCCCO)ccc2N1C(=O)c1ccc2ccccc2n1 (stereo partly drawn) = 0.0942
• C=CCOC(=O)[C@@H]1[C@H]2C(=O)O[C@H](c3ccccc3)[C@H](c3ccccc3)N2[C@H](c2ccc(OCCOC(=O)[C@H]3C[C@H]4C(=O)NCC(=O)N4[C@H]3c3ccc(O)cc3)cc2)[C@@]12C(=O)Nc1ccc(I)cc12 = 0.222
• C=CC[C@@]12N=C(c3ccc(OCCCO)cc3)O[C@@H]1c1ccccc1N(Cc1ccccc1)C2=O = 0.598
• C[C@H]1C2[C@H](Cc3ccccc3)NC(=O)[C@]23C(=O)NCC(=O)N2CCC[C@H]2C(=O)NC/C=C\C/C=C/C3[C@@H]2O[C@]12C (stereo partly drawn) = -0.8
• COCCOC(=O)N1C(=O)[C@@]2(c3cc(C#CCC(C(=O)OC)C(=O)OC)ccc31)[C@H](C(=O)N1CCc3cc(OC)c(OC)cc3C1)[C@H]1C(=O)O[C@H](c3ccccc3)[C@H](c3ccccc3)N1[C@@H]2c1ccc(O)cc1 = 1.4

====

System: Noggin (protein binding on small-molecule microarray)
test-summary: Noggin binders on small-molecule microarray, primary screen, biochemical, 635/667 nm fluorescence (AID 1095);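 further: score merges 667 nm feature fluorescence with signal to noise over triplicate slides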
run-conditions: 635 nm fluorescence, higher = more signal
Each record's composite z-score is compared with band A (below 0.2), band B (0.2 to below 0.9), band C (0.9 or more) to give its class.

- CC(C)CNC(=O)[C@@H]1c2ccccc2C(=O)N(Cc2ccccc2Cl)[C@H]1c1ccc(CO)cc1: band A
- CC(C)c1ccc(NN2C(C(O)C(C)C)C=CC3C(=O)N(c4ccccc4)C(=O)C32)cc1 (stereo not given): band B
- COCCOC(=O)N1C(=O)[C@@]2(c3cc(C#CCNC(N)=O)ccc31)[C@H](C(=O)NC[C@H](O)c1ccccc1)[C@H]1C(=O)O[C@H](c3ccccc3)[C@H](c3ccccc3)N1[C@@H]2c1ccc(OCCO)cc1: band B
- O=C(NCCO)C1=C[C@H](Oc2ccccc2I)[C@@H](O)[C@H](NCc2ccc(F)cc2)C1: band C
- N#Cc1ccc(C(O)C2C=CC3C(=O)N(c4ccccc4)C(=O)C3N2Nc2ccc([N+](=O)[O-])cc2)cc1 (stereo not given): band A
- COCCOC(=O)N1C(=O)[C@@]2(c3cc(C#CCCO)ccc31)[C@H](C(=O)N1CCN(c3ncccn3)CC1)[C@H]1C(=O)O[C@H](c3ccccc3)[C@H](c3ccccc3)N1[C@@H]2c1ccc(O)cc1: band B
- COCCOC(=O)N1C(=O)[C@@]2(c3cc(C#CC4(O)CCCCCC4)ccc31)[C@H](c1ccc(OCCO)cc1)N1[C@H](c3ccccc3)[C@H](c3ccccc3)OC(=O)[C@H]1[C@@H]2C(=O)N1CCCCCCC1: band C
- O=C1c2ccccc2[C@](Cc2ccccc2I)(C(=O)O)[C@H](c2ccc(CO)cc2)N1Cc1ccccc1: band A
- C=CC[C@@]12N=C(c3ccc(OCCCO)cc3)O[C@@H]1c1ccccc1N(Cc1ccccc1)C2=O: band C
- C[N+](C)(C)CCCC[C@@H]1NC(=O)[C@H]2C[C@@H](C(=O)NCCCCCNC(=O)CS)[C@@H](c3ccc(O)cc3)N2C1=O: band B
- C=C(COC)C(=O)CC[C@@H](OC(=O)c1cccnc1)c1cccc(OCCO)c1: band B
- COc1ccc([Si](C)(C)[C@@H]2[C@@H](CCO)O[C@]3(C(=O)N(Cc4ccccc4)c4ccc(N5C(=O)c6ccccc6Oc6ccccc65)cc43)[C@H]2C)cc1: band B
- COc1ccc(NN2C(C(O)c3ccc(OC)cc3)C=CC3C(=O)N(C4CCCCC4)C(=O)C32)cc1 (stereo not given): band A
- COCCCNC(=O)[C@@H]1c2ccccc2C(=O)N(Cc2cc(C(F)(F)F)cc(C(F)(F)F)c2)[C@H]1c1ccc(CO)cc1: band A
- CCCC[C@@H]1C[C@H]1[C@@H](NC(=O)Cc1ccccc1)c1ccc(Cl)cc1: band C
